test system: CDK7 (human)
assay details: KINOMEscan competition binding
test context: compound 10.0 µM
experimental endpoint: kinase still bound, per cent of control (%)
Just the number please, in %, no unit attached.

**Query** Looking for the measured kinase still bound, per cent of control of "O=C(NC1CC1)c1cccc(-c2ccc3c(NC(=O)C4CC4)n[nH]c3c2)c1" , can you help?
**Result** 18

**Query** I would be grateful if you could share the reported kinase still bound, per cent of control for "Cn1c(=O)n(-c2ccc(C(C)(C)C#N)cc2)c2c3cc(-c4cnc5ccccc5c4)ccc3ncc21" .
**Result** 100

**Query** Which kinase still bound, per cent of control is listed for "COc1cc(N2CCN(C)CC2)ccc1Nc1nc(N)c(C(=O)c2c(Cl)cccc2Cl)s1" ?
**Result** 2.8

**Query** # lookup: kinase still bound, per cent of control of "C=CC(=O)Nc1cccc(Oc2nc(Nc3ccc(N4CCN(C)CC4)cc3OC)ncc2Cl)c1"
**Result** 35

**Query** Entry "CCCS(=O)(=O)Nc1ccc(F)c(C(=O)c2c[nH]c3ncc(-c4ccc(Cl)cc4)cc23)c1F" : reported kinase still bound, per cent of control = ?
**Result** 82

**Query** For "N#Cc1c(NC(=O)c2cccc3ccccc23)sc2c1CCCC2" , what is its reported kinase still bound, per cent of control?
**Result** 82

**Query** Value lookup for kinase still bound, per cent of control; key = "CN(C)C/C=C/C(=O)Nc1cccc(Nc2ncc3c(n2)N(C)c2ccccc2C(=O)N3C)c1"
**Result** 9.6

**Query** Reported kinase still bound, per cent of control, compound "Cc1ccc2nc(NCCN)c3ncc(C)n3c2c1" : ____
**Result** 6.3

**Query** kinase still bound, per cent of control for "COc1cc(C(=O)NC2CCN(C)CC2)ccc1Nc1ncc2c(n1)N(C1CCCC1)CCC(=O)N2C(C)C" ?
**Result** 100

**Query** Give its kinase still bound, per cent of control value. Item: "Nc1ccc(-c2ccc3ncc4ccc(=O)n(-c5cccc(C(F)(F)F)c5)c4c3c2)cn1"
**Result** 51
